Where these numbers come from: PubChem BioAssay (EPA / NIEHS)

# method_description: APR_HepG2_MitoMembPot_1hr: Apredica 1-hour HepG2 Assay for Mitochondrial Membrane Potential (AID 2282675)
# conditions: imaging, actives raise or lower the signal
Activity calls are given as the source filed them. The calls were made as follows: active = hit-call score of the fitted dose curve at least 0.9, where 1 is the maximum; inactive = score below 0.9.
Pick one: active, inactive

Some solved entries appear below for comparison.
- CNC(=O)CSP(=S)(OC)OC: inactive
- CCCN(CCC)c1c([N+](=O)[O-])cc(C(F)(F)F)cc1[N+](=O)[O-]: inactive
- Oc1ccc(Cl)cc1Cc1ccccc1: inactive
- CC1(c2ccc(Oc3ccccc3)cc2)OC(=O)N(Nc2ccccc2)C1=O (stereo not given): inactive
- CCOc1nc(NC)nc(NC(=O)NS(=O)(=O)c2ccccc2C(=O)OC)n1: inactive

What outcome does the record of this test show for O=C(NC(=O)c1c(F)cccc1F)Nc1ccc(OC(F)(F)C(F)OC(F)(F)F)c(Cl)c1 (stereo not given) ?
inactive

What outcome does the record of this test show for N#Cc1c(Cl)c(Cl)c(Cl)c(C#N)c1Cl ?
active

What outcome does the record of this test show for COP(=O)(OC)OC=C(Cl)Cl ?
inactive

What outcome does the record of this test show for CCC(C)Nc1c([N+](=O)[O-])cc(C(C)(C)C)cc1[N+](=O)[O-] (stereo not given) ?
inactive

What outcome does the record of this test show for O=C1c2ccccc2C(=O)N1SC(Cl)(Cl)Cl ?
inactive
